# assayNotes: Plasma pharmacokinetics of ESK-440 and metabolite CEP-38901
# Format: in vivo, human
# assaySetup: human, plasma, oral, 50 mg/day, Cmax, Day 1, 50 mg/day (N = 3)
experimentalReadout: Cmax
Remember to put the unit after the number in your answer.

## Task Which measured Cmax value corresponds to CNC(=O)c1ccccc1Nc1nc(Nc2ccc3c(c2OC)CCC[C@H](N2CCN(CCO)CC2)C3)ncc1Cl ?
## Result 38.1 ng/mL

---

# assayNotes: Plasma pharmacokinetics of ESK-440 and metabolite CEP-38901
# Assay type: in vivo, human
# assaySetup: human, plasma, oral, 350 mg/day, tmax, Day 1, 350 mg/day (N = 4), median (range)
experimentalReadout: Tmax (h)
Report the value in h with no unit label.

## Task Which measured Tmax value corresponds to CNC(=O)c1ccccc1Nc1nc(Nc2ccc3c(c2OC)CCC[C@H](N2CCN(CCO)CC2)C3)ncc1Cl [ESK-440] ?
## Result 5

This collection of values is drawn from paper PMC11847724.
